- Protocol Description: Lipophilicity, log P of the compound at 25 degC
- Assay type: physicochemical
- Measurement Conditions: octanol/water
Assay Endpoint: logP

- CCc1cc(C)cc(CC)c1-c1c(OC(=O)C(C)(C)C)n2n(c1=O)CCOCC2 [PINOXADEN]: 3.2

* * *

- Tested on: Setaria faberi
- Protocol Description: Herbicidal activity against Setaria faberi (Giant Foxtail) assessed as weed control at 30 g/ha under greenhouse measured after 21 days by post-emergence test
- Type: functional
Assay Endpoint: Activity (%)

- CCc1cccc(CC)c1C1C(=O)N2CCOCCN2C1=O: 90
- C#Cc1cc(C)cc(C)c1C1C(=O)N2CCOCCN2C1=O: 100
- CC#Cc1cc(C)cc(C)c1C1C(=O)N2CCOCCN2C1=O: 40
- Cc1cc(Br)c(C2C(=O)N3CCOCCN3C2=O)c(Br)c1: 10
- CCc1cc(C)c(C2C(=O)N3CCOCCN3C2=O)c(CC)c1: 60
- CCCc1cc(C)cc(CCC)c1C1C(=O)N2CCOCCN2C1=O: 90
- CCc1cc(C)cc(CC)c1C1C(=O)N2COC(CC)CN2C1=O (configuration not stated): 90
- C#Cc1cc(C)c(C2C(=O)N3CCOCCN3C2=O)c(CC)c1: 20
- COc1cc(C)cc(Br)c1C1C(=O)N2CCOCCN2C1=O: 60
- CCCc1cc(C)cc(C)c1C1C(=O)N2CCOCCN2C1=O: 40
- CCc1cc(C)cc(CC)c1C1C(=O)N2CCOCN2C1=O (configuration not stated): 10
- C#Cc1cc(C)cc(OC)c1C1C(=O)N2CCOCCN2C1=O: 90
